Record form. Attribute: pIC50. Fill in for each entry.
measuredOn: Kras and SOS1 (biotin-tagged human Kras loaded with GDP, His-tagged human SOS1) (Homo sapiens, UniProt P01116, G12D)
Construct: made in house; host or cells: E. coli (stated for Kras only)
Sequence (P01116 1-188 isoform P01116-2 G12D): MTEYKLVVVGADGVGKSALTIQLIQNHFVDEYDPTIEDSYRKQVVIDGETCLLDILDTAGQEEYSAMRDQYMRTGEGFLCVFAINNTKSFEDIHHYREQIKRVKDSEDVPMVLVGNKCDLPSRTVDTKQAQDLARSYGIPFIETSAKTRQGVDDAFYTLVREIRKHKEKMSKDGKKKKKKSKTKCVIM
procedureSummary: Protein-protein interaction inhibition between Kras and SOS1 (KrasGl2D-SOS PPI) using AlphaScreen
Format: binding
condition: AlphaScreen; biotin-tagged human Kras loaded with GDP, His-tagged human SOS1; read-out: KRAS G12D-SOS PPI IC50
Positions of bridges follow the written chain, without caps; N, C: chain ends. Non-standard residues stand in square brackets, D forms with d. Residues, ends and D or L forms follow the SMILES beside them. *: point of attachment. hPhe(3,5-F2-4-CF3) = N[C@@H](CCc1cc(F)c(C(F)(F)F)c(F)c1)C(=O)O; hPhe(3-Cl-4-CF3) = N[C@@H](CCc1ccc(C(F)(F)F)c(Cl)c1)C(=O)O; Pro(4,4-F2) = O=C(O)[C@@H]1CC(F)(F)CN1; NMeGly(cBu) = CN[C@H](C(=O)O)C1CCC1; NMeCha = CN[C@@H](CC1CCCCC1)C(=O)O; NMeChg = CN[C@H](C(=O)O)C1CCCCC1; NMeF = CN[C@@H](Cc1ccccc1)C(=O)O; NMeD = CN[C@@H](CC(=O)O)C(=O)O; NMeV = CN[C@H](C(=O)O)C(C)C; NMeA = CN[C@@H](C)C(=O)O; Piperidide = C1CCN(*)CC1; Pyrrolidide = C1CCN(*)C1; Ac5c = NC1(C(=O)O)CCCC1; Sar = CNCC(=O)O
Answers are plain numbers, as −log10 of the molar value.

{"columns": ["molecule", "quantity", "dataValue"],
 "data": [
  ["CC[C@H](C)[C@@H]1NC(=O)[C@H](C2CCC2)N(C)C(=O)C[C@@H](C(=O)N2CCCC2)N(C)C(=O)[C@H](C2CCCCC2)N(C)C(=O)C2(CCCC2)NC(=O)[C@@H]2CC(F)(F)CN2C(=O)[C@H](CCc2cc(F)c(C(F)(F)F)c(F)c2)NC(=O)CN(C)C(=O)[C@H](CC2CCCCC2)N(C)C(=O)CN(C)C(=O)CN(C)C1=O [Compound 1295] ([NMeGly(cBu)]I[Sar][Sar][NMeCha][Sar][hPhe(3,5-F2-4-CF3)][Pro(4,4-F2)][Ac5c][NMeChg][NMeD]-Pyrrolidide; lactam N-11)", "pIC50", 9.30]
]}

--- query ---
Ask: So what does the record say about pIC50 for CC[C@H](C)[C@@H]1NC(=O)[C@H](C)N(C)C(=O)C[C@@H](C(=O)N2CCCCC2)N(C)C(=O)[C@H](C(C)C)N(C)C(=O)C2(CCCC2)NC(=O)[C@@H]2CCCN2C(=O)[C@H](CCc2ccc(C(F)(F)F)c(Cl)c2)NC(=O)CN(C)C(=O)[C@H](Cc2ccccc2)N(C)C(=O)[C@@H]2CCCN2C(=O)CN(C)C1=O [Compound 1753] ([NMeA]I[Sar]P[NMeF][Sar][hPhe(3-Cl-4-CF3)]P[Ac5c][NMeV][NMeD]-Piperidide; lactam N-11) ?
Reply: 8.60

----------
measuredOn: Kras and SOS1 (biotin-tagged human Kras loaded with GDP, His-tagged human SOS1) (Homo sapiens, UniProt P01116, G12D)
Construct: made in house; host or cells: E. coli (stated for Kras only)
procedureSummary: Protein-protein interaction inhibition between Kras and SOS1 (KrasGl2D-SOS PPI) using AlphaScreen
Type: binding
condition: AlphaScreen; biotin-tagged human Kras loaded with GDP, His-tagged human SOS1; read-out: KRAS G12D-SOS PPI IC50
Positions of bridges follow the written chain, without caps; N, C: chain ends. Non-standard residues stand in square brackets, D forms with d. Residues, ends and D or L forms follow the SMILES beside them. *: point of attachment. hPhe(3-Cl-4-CF3) = N[C@@H](CCc1ccc(C(F)(F)F)c(Cl)c1)C(=O)O; NMeCha = CN[C@@H](CC1CCCCC1)C(=O)O; NMeChg = CN[C@H](C(=O)O)C1CCCCC1; Gly(cBu) = N[C@H](C(=O)O)C1CCC1; NMeD = CN[C@@H](CC(=O)O)C(=O)O; NMeL = CN[C@@H](CC(C)C)C(=O)O; Morpholide = C1CN(*)CCO1; Ac5c = NC1(C(=O)O)CCCC1; Sar = CNCC(=O)O
quantity: IC50 (nM)
Answers are plain numbers, in nM.

Ask: Reported IC50, molecule CC(C)C[C@H]1C(=O)N[C@@H](C2CCC2)C(=O)N(C)CC(=O)N(C)CC(=O)N(C)[C@@H](CC2CCCCC2)C(=O)N(C)CC(=O)N[C@@H](CCc2ccc(C(F)(F)F)c(Cl)c2)C(=O)N2CCC[C@H]2C(=O)NC2(CCCC2)C(=O)N(C)[C@@H](C2CCCCC2)C(=O)N(C)[C@H](C(=O)N2CCOCC2)CC(=O)N1C [Compound 1906] ([NMeL][Gly(cBu)][Sar][Sar][NMeCha][Sar][hPhe(3-Cl-4-CF3)]P[Ac5c][NMeChg][NMeD]-Morpholide; lactam N-11) : ____
Reply: 0.55

Origin of the recorded values: patent US12371454B2
